Data provenance is paper PMC4007625.

test-description: clinical
reported-conditions: human, in vivo, 1000 mg, Cmax
assay-readout: Cmax (ng/mL)

smiles_entry=C=CC(=O)Nc1ccc2ncnc(Nc3ccc(OCc4cccc(F)c4)c(Cl)c3)c2c1 assay_readout=Cmax measured_result=47.3

* * *

test-description: clinical
reported-conditions: human, in vivo, 1500 mg, AUC0-∞
assay-readout: AUC(0-inf) (ng·h/mL)

smiles_entry=C=CC(=O)Nc1ccc2ncnc(Nc3ccc(OCc4cccc(F)c4)c(Cl)c3)c2c1 measured_result=1200

* * *

test-description: clinical
reported-conditions: human, in vivo, 1000 mg, AUC0-t
Method: This was the first-in-human phase I dose-escalation study of AST1306 for patients with advanced solid tumors. AST1306 was orally administered without food for one day followed by two days off to evaluate single dose PK profiles. […] All PK sampling was performed in the first cycle. […] PK parameters of AST1306 were also determined on days 10, 23 (pre-dose and 2 h after the first dosing), and 24 (steady state, the same time points as the first-day dosing) of continuous treatment. […]
assay-readout: AUC(0-t) (ng·h/mL)

smiles_entry=C=CC(=O)Nc1ccc2ncnc(Nc3ccc(OCc4cccc(F)c4)c(Cl)c3)c2c1 measured_result=1420

* * *

test-description: clinical
reported-conditions: human, in vivo, 1000 mg, AUC0-∞
assay-readout: AUC(0-inf) (ng·h/mL)

smiles_entry=C=CC(=O)Nc1ccc2ncnc(Nc3ccc(OCc4cccc(F)c4)c(Cl)c3)c2c1 measured_result=1430

* * *

test-description: clinical
reported-conditions: human, in vivo, 1500 mg, AUC0-24 h
assay-readout: AUC(0-t) (ng·h/mL)

molecule="C=CC(=O)Nc1ccc2ncnc(Nc3ccc(OCc4cccc(F)c4)c(Cl)c3)c2c1 [AST1306]" assay_readout=AUC(0-t) unit_descriptor=ng·h/mL measured_result=997

* * *

test-description: clinical
reported-conditions: human, in vivo, 1000 mg, AUC0-24 h
assay-readout: AUC(0-t) (ng·h/mL)

molecule="C=CC(=O)Nc1ccc2ncnc(Nc3ccc(OCc4cccc(F)c4)c(Cl)c3)c2c1 [AST1306]" assay_readout=AUC(0-t) measured_result=1130

* * *

test-description: Food-effect study, two-way crossover, single dose
Type: in vivo, human
reported-conditions: human, plasma, po, 1000 mg, 1000 mg single oral dose; fasted (n =12); geometric mean (range); read-out: t1/2z (converted)
assay-readout: half-life (h)

molecule="C=CC(=O)Nc1ccc2ncnc(Nc3ccc(OCc4cccc(F)c4)c(Cl)c3)c2c1 [AST1306]" assay_readout=half-life unit_descriptor=h measured_result=6.99

* * *

test-description: clinical
reported-conditions: human, in vivo, 800 mg, Cmax
assay-readout: Cmax (ng/mL)

molecule="C=CC(=O)Nc1ccc2ncnc(Nc3ccc(OCc4cccc(F)c4)c(Cl)c3)c2c1 [AST1306]" unit_descriptor=ng/mL measured_result=67.7

* * *

test-description: clinical
reported-conditions: human, in vivo, gMean terminal half-life
assay-readout: half-life

smiles_entry=C=CC(=O)Nc1ccc2ncnc(Nc3ccc(OCc4cccc(F)c4)c(Cl)c3)c2c1 measured_result="3.33 to 7.57 h"

* * *

test-description: Food-effect study, two-way crossover, single dose
Format: in vivo, human
reported-conditions: human, plasma, po, 1000 mg, 1000 mg single oral dose; fed, high-fat breakfast (n =12); geometric mean (range)
assay-readout: AUC(0-inf)

smiles_entry=C=CC(=O)Nc1ccc2ncnc(Nc3ccc(OCc4cccc(F)c4)c(Cl)c3)c2c1 assay_readout=AUC(0-inf) measured_result="814 ng·h/mL"

* * *

test-description: Food-effect study, two-way crossover, single dose
Assay type: in vivo, human
reported-conditions: human, plasma, po, 1000 mg, 1000 mg single oral dose; fed, high-fat breakfast (n =12); (range)
assay-readout: Tmax (h)

smiles_entry=C=CC(=O)Nc1ccc2ncnc(Nc3ccc(OCc4cccc(F)c4)c(Cl)c3)c2c1 assay_readout=Tmax unit_descriptor=h measured_result=4.25

* * *

test-description: clinical
reported-conditions: human, in vivo, 1200 mg, Cmax
assay-readout: Cmax (ng/mL)

smiles_entry=C=CC(=O)Nc1ccc2ncnc(Nc3ccc(OCc4cccc(F)c4)c(Cl)c3)c2c1 unit_descriptor=ng/mL measured_result=61.9

* * *

test-description: Food-effect study, two-way crossover, single dose
Type: in vivo, human
reported-conditions: human, plasma, po, 1000 mg, 1000 mg single oral dose; fed, high-fat breakfast (n =12); geometric mean (range)
assay-readout: AUC(0-t) (ng·h/mL)

smiles_entry=C=CC(=O)Nc1ccc2ncnc(Nc3ccc(OCc4cccc(F)c4)c(Cl)c3)c2c1 measured_result=797

* * *

test-description: Food-effect study, two-way crossover, single dose
Assay type: in vivo, human
reported-conditions: human, plasma, po, 1000 mg, 1000 mg single oral dose; fed, high-fat breakfast (n =12); geometric mean (range); read-out: t1/2z (converted)
assay-readout: half-life (h)

smiles_entry=C=CC(=O)Nc1ccc2ncnc(Nc3ccc(OCc4cccc(F)c4)c(Cl)c3)c2c1 assay_readout=half-life measured_result=4.19

* * *

test-description: Food-effect study, two-way crossover, single dose
Format: in vivo, human
reported-conditions: human, plasma, po, 1000 mg, 1000 mg single oral dose; fasted (n =12); (range)
assay-readout: Tmax

smiles_entry=C=CC(=O)Nc1ccc2ncnc(Nc3ccc(OCc4cccc(F)c4)c(Cl)c3)c2c1 measured_result="2.38 h"

* * *

test-description: Food-effect study, two-way crossover, single dose
Type: in vivo, human
reported-conditions: human, plasma, po, 1000 mg, 1000 mg single oral dose; fasted (n =12); geometric mean (range)
assay-readout: AUC(0-inf) (ng·h/mL)

compound="C=CC(=O)Nc1ccc2ncnc(Nc3ccc(OCc4cccc(F)c4)c(Cl)c3)c2c1 [AST1306]" measured_result=331

* * *

test-description: clinical
reported-conditions: human, in vivo, terminal half-life
assay-readout: half-life

smiles_entry=C=CC(=O)Nc1ccc2ncnc(Nc3ccc(OCc4cccc(F)c4)c(Cl)c3)c2c1 measured_result="3.48 to 5.56 h"

* * *

test-description: Food-effect study, two-way crossover, single dose
Format: in vivo, human
reported-conditions: human, plasma, po, 1000 mg, 1000 mg single oral dose; fed, high-fat breakfast (n =12); geometric mean (range)
assay-readout: Cmax (ng/mL)

smiles_entry=C=CC(=O)Nc1ccc2ncnc(Nc3ccc(OCc4cccc(F)c4)c(Cl)c3)c2c1 measured_result=139
